The listing below reports pIC50 for compounds tested on Glycogen synthase kinase-3 beta (Homo sapiens, UniProt P49841).
Sequence (P49841 whole entry): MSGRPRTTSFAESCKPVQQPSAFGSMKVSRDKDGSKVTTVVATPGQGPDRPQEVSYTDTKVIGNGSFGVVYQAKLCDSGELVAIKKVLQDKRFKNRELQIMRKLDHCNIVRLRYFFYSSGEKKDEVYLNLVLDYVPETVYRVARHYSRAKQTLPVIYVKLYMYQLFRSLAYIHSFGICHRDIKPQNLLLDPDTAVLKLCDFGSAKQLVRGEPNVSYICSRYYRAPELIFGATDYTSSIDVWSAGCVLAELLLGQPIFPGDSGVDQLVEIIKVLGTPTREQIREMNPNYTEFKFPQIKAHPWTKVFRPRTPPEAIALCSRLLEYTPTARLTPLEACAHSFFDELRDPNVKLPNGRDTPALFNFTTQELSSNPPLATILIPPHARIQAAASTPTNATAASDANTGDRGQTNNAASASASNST
Non-standard residues stand in square brackets, D forms with d. Residues, ends and D or L forms follow the SMILES beside them. *: point of attachment. Myristoyl = CCCCCCCCCCCCCC(=O)*; pS = N[C@@H](COP(=O)(O)O)C(=O)O
Expect pIC50 as a plain number equal to -log10 of the molar concentration.

[
  {
    "compound": "CCCCCCCCCCCCCC(=O)NCC(=O)N[C@@H](CCCCN)C(=O)N[C@@H](CCC(=O)O)C(=O)N[C@@H](C)C(=O)N1CCC[C@H]1C(=O)N1CCC[C@H]1C(=O)N[C@@H](C)C(=O)N1CCC[C@H]1C(=O)N1CCC[C@H]1C(=O)N[C@@H](CCC(N)=O)C(=O)N[C@@H](COP(=O)(O)O)C(=O)N1CCC[C@H]1C(N)=O (Myristoyl-GKEAPPAPPQ[pS]P-NH2)",
    "pIC50": 4.40
  }
]

Please examine the following record next.
Input line: # query: pIC50 of entry CCCCCCCCCCCC(=O)NNC(=O)C1Sc2ccccc2N(CC)C1=O (configuration not stated)
Output line: 5.10

Values compiled from ChEMBL document CHEMBL3352320.
